Reported T/C by item:
system: L1210 leukemia ip in BDF1 mice, survival T/C; test: NCI In Vivo Anticancer Drug Screen. Data for tumor model L1210 Leukemia (intraperitoneal) in B6D2F1 (BDF1) mice; conditions: endpoint: mean survival time; dose: 100.0 mg/kg/injection; schedule: Q01DX001 (ip); vehicle: carboxymethylcellulose (CMC); higher = longer survival
Inconclusive results and toxic doses are left out.

Example cases with answers are listed next.
S=C(S)N1CCOCC1.[Cu+2]	107 % of control
CCCCC(=O)N1CCCCC1C (configuration not stated)	101 % of control
CN(C)C1c2ccccc2-c2ccc(N)cc21 (configuration not stated)	94 % of control

Quick one: T/C for `ClC(Cl)(Cl)C(N1CCN(c2ccccc2)CC1)N1CCN(c2ccccc2)CC1` ?
101 % of control

Entry `COC(=O)c1cccc(OC)c1` : reported T/C = ?
98 % of control

Name the reported T/C value associated with the molecule `CC(=O)OC1=CC(=O)c2ccccc2C1=O`
104 % of control

Quick one: T/C for `COC(=O)c1ccccc1N(C)C(=O)Nc1ccc(F)cc1` ?
94 % of control

---

system: L1210 leukemia ip in BDF1 mice, survival T/C; assay: NCI In Vivo Anticancer Drug Screen. Data for tumor model L1210 Leukemia (intraperitoneal) in B6D2F1 (BDF1) mice; conditions: endpoint: mean survival time; dose: 100.0 mg/kg/injection; schedule: Q04DX002 (ip); vehicle: saline with Tween-80; higher = longer survival
Toxic doses and inconclusive results are not listed.
Listed below: T/C values for each entry.

Use the examples below as a reference point.
CC(=O)OCCc1ccc(Cl)cc1	93 % of control
COc1cc(C(=O)NC(=S)Nc2ccc3ccccc3c2)cc(OC)c1OC	91 % of control
CN1c2ccccc2NP1(=S)c1ccccc1 (centres undefined)	90 % of control
Cc1ccc(S(=O)(=O)OCC(C)([N+](=O)[O-])[N+](=O)[O-])cc1	94 % of control
O=C(c1ccccc1[N+](=O)[O-])C(Br)C(Br)c1cccc2ccccc12 (centres undefined)	93 % of control
O=C(SC(=S)NCCNC(=S)SC(=O)c1ccccc1)c1ccccc1	87 % of control
OCC1SCCS1	101 % of control
CCn1c2ccccc2c2nnc(NCCCO)nc21	96 % of control

// T/C lookup, key: O=[N+]([O-])C1CCC(C2=CSC3CCCCC3N2)CC1 (centres undefined)
90 % of control

Return reported T/C; argument: `C[Si](C)(c1ccc(C(=O)Cl)cc1)c1ccc(C(=O)Cl)cc1`
96 % of control

Can you share its T/C? I mean this compound: `NC(=O)c1c(/N=C/c2cc(Cl)cc(Cl)c2O)sc2c1CCCC2`
96 % of control

Quick one: T/C of `Nc1nc(-c2ccccc2)[nH]c(=O)c1N=O` ?
98 % of control

May I ask what T/C has been recorded for `O=C1c2ccccc2C(=O)N1CNc1ccccc1/C(=N/Nc1ccc([N+](=O)[O-])cc1[N+](=O)[O-])c1ccccc1` ?
91 % of control

# T/C lookup, item `COC(=O)c1ccccc1N(C)C(=O)c1cc(OC)c(OC)c(OC)c1`
108 % of control

---

System: L1210 leukemia ip in BDF1 mice, survival T/C
Assay: NCI In Vivo Anticancer Drug Screen. Data for tumor model L1210 Leukemia (intraperitoneal) in B6D2F1 (BDF1) mice
Settings: endpoint: mean survival time; dose: 75.0 mg/kg/injection; schedule: Q01DX001 (ip); vehicle: Klucel (hydroxypropylcellulose) (HPC); higher = longer survival
Procedure: The antitumor activity of compounds was measured in mice bearing transplantable tumors. Survival or tumor size were measured and the results are expressed as the measurement made in the treated group (T) divided by the measurement made in the vehicle treated control group (C). The tumor model used in this assay is L1210 Leukemia (intraperitoneal) in B6D2F1 (BDF1) mice
Inconclusive results and toxic doses are left out.
metric: T/C

CC1=CC2C(C3C=CC2(C)C(=O)C3(C)Cc2ccccc2)C(C)(Cc2ccccc2)C1=O (centres undefined)	100 % of control
Cc1ccc(-n2c(=O)c(N=Nc3ccccc3C)c(O)n(-c3ccccc3C)c2=S)cc1	103 % of control
[C-]#[N+]C(C)(C)CC(C)(C)C	96 % of control

Report T/C for `Cn1c(CCCC(=O)O)nc2cc(N(CCCl)CCCl)ccc21` tested on L1210 leukemia ip in BDF1 mice, survival T/C.
112 % of control

Measured values drawn from PubChem BioAssay AID248 for this set.
